Run Description: Pharmacokinetic study in Beagle dogs
Assay type: in vivo
Condition Summary: dog, plasma, Oral (2 mg/kg)
Observation Type: half-life (h)
Lab book: enter the figure in h, no units written.

Ask: If you can, please state the reported half-life value of `[2H]C([2H])([2H])CC(=O)c1cnc(NC(=O)C2CC2)cc1Nc1nccc(-c2ncn(C([2H])([2H])[2H])n2)c1OC` .
Reply: 8.51

***
Ask: May I ask what half-life has been recorded for `[2H]C([2H])([2H])CC(=O)c1cnc(Nc2cccc(C#N)n2)cc1Nc1nccc(-c2ncn(C([2H])([2H])[2H])n2)c1OC` ?
Reply: 1.36

Ask: Same question, `[2H]C([2H])([2H])CC(=O)c1cnc(Nc2cccc(C#N)n2)cc1Nc1cccc(-c2ncn(C([2H])([2H])[2H])n2)c1OC` this time
Reply: 1.42

Ask: Also need `[2H]C([2H])([2H])CC(=O)c1cnc(NC(=O)C2CC2)cc1Nc1cccc(-c2ncn(C([2H])([2H])[2H])n2)c1OC` , thanks.
Reply: 5.73

Ask: Request: `[2H]C([2H])([2H])CC(=O)c1cnc(Nc2ccc(C(C)(C)O)c(F)n2)cc1Nc1nccc(-c2ncn(C([2H])([2H])[2H])n2)c1OC`
Reply: 5.05

Ask: `[2H]C([2H])([2H])CC(=O)c1cnc(Nc2ccc(C(C)(C)O)c(F)n2)cc1Nc1cccc(-c2ncn(C([2H])([2H])[2H])n2)c1OC` ?
Reply: 1.59

###

Run Description: Pharmacokinetic study in Beagle dogs
Format: in vivo
Condition Summary: dog, plasma, iv, I.V. (1 mg/kg)
Entries annotated with measured AUC
Field format: number, assumed ng·h/mL, no unit text.

Some compounds with known AUC results, for comparison:
Ask: May I ask what AUC has been recorded for `[2H]C([2H])([2H])CC(=O)c1cnc(Nc2ccc(C(C)(C)O)c(F)n2)cc1Nc1cccc(-c2ncn(C([2H])([2H])[2H])n2)c1OC` ?
Reply: 504

Ask: Could you do the same for `[2H]C([2H])([2H])CC(=O)c1cnc(Nc2ccc(C(C)(C)O)c(F)n2)cc1Nc1nccc(-c2ncn(C([2H])([2H])[2H])n2)c1OC` , please?
Reply: 575

Ask: And the next one, `[2H]C([2H])([2H])CC(=O)c1cnc(Nc2cccc(C#N)n2)cc1Nc1cccc(-c2ncn(C([2H])([2H])[2H])n2)c1OC` ?
Reply: 234

Ask: And for `[2H]C([2H])([2H])CC(=O)c1cnc(NC(=O)C2CC2)cc1Nc1cccc(-c2ncn(C([2H])([2H])[2H])n2)c1OC` ?
Reply: 2900

--- query ---
Ask: Any idea what its AUC is? The compound is `[2H]C([2H])([2H])CC(=O)c1cnc(Nc2cccc(C#N)n2)cc1Nc1nccc(-c2ncn(C([2H])([2H])[2H])n2)c1OC`
Reply: 315

###

Run Description: Pharmacokinetic study in C57BL/6 mice
Type: in vivo
Condition Summary: male, mouse, plasma, Oral (10 mg/kg)
Each entry below lists one item and its recorded Tmax value.
Numbers only here, please. The scale is min.

Ask: What does the data say about its Tmax? Entry: [2H]C([2H])([2H])CC(=O)c1cnc(NC(=O)C2CC2)cc1Nc1nccc(-c2ncn(C([2H])([2H])[2H])n2)c1OC [Example 200]
Reply: 15

Ask: Similarly, [2H]C([2H])([2H])CC(=O)c1cnc(Nc2ccc(C(C)(C)O)c(F)n2)cc1Nc1cccc(-c2ncn(C([2H])([2H])[2H])n2)c1OC [Example 202] ?
Reply: 30

Okay, now this compound:
Ask: Fill in the blank: the reported Tmax of [2H]C([2H])([2H])CC(=O)c1cnc(NC(=O)C2CC2)cc1Nc1cccc(-c2ncn(C([2H])([2H])[2H])n2)c1OC [Example 195] is ____.
Reply: 30
